Form field: abundance fitness (one value per entry).
B1: E3 ubiquitin-protein ligase Midline-1, residues 172 to 214; numbered along this chain, O15344 (parent)
chain: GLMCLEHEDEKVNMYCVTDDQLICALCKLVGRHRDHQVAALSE

Variants of: B1
Experiment: abundance fitness (aPCA) (normalised: wild type 0, dead -1); higher = more abundant; growth selection in yeast, the domain comes from the species named
Settings: Homo sapiens
Please respond with just the number, no unit label.

Ask: Give its abundance fitness value. Item: GLMCLEHEDEKVNMYCVTDDQLICALCPLVGRHRDHQVAALSE
Reply: 0

Others:
Ask: Give its abundance fitness value. Item: GLMCLEHEDEKVNMYCVTDDQLICALCKNVGRHRDHQVAALSE
Reply: 0.072

Ask: Give its abundance fitness value. Item: GLMCLEHEDEKVNMYCVTDDWLICALCKLVGRHRDHQVAALSE
Reply: -0.682

Ask: Give its abundance fitness value. Item: GLMCLEHEDEKVNMYCCTDDQLICALCKLVGRHRDHQVAALSE
Reply: 0.173
